Biological target: T1, recombinant trimeric protein of human CD70 extracellular region (human CD70 mIgG Fc (knob) / mouse IgG Fc … (human, UniProt P01863 98-330 = IgG part))
T1 construct: The ELISA and Octet texts say only 'recombinant CD70 protein' / 'CM352 antigen'; also called recombinant human CD70 protein; recombinant CD70 protein
T1 chain 1: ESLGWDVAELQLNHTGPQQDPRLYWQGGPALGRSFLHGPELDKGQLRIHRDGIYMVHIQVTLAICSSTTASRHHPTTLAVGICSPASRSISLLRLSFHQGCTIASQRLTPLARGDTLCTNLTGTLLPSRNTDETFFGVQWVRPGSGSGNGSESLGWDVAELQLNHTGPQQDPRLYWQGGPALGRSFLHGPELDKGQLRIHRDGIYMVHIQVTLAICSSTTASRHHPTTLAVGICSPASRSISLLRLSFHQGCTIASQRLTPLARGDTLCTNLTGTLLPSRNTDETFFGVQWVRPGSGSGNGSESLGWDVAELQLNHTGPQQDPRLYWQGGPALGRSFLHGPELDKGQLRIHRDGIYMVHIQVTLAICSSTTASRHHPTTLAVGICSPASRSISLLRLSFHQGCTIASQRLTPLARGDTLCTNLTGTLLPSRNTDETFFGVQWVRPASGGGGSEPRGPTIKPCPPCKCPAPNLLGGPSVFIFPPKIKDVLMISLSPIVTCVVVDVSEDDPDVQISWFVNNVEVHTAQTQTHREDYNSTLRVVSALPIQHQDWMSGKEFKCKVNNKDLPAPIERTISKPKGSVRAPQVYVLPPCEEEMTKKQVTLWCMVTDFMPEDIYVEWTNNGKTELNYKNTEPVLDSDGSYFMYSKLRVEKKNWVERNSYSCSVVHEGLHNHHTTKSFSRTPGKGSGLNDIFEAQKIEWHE
T1 chain 2: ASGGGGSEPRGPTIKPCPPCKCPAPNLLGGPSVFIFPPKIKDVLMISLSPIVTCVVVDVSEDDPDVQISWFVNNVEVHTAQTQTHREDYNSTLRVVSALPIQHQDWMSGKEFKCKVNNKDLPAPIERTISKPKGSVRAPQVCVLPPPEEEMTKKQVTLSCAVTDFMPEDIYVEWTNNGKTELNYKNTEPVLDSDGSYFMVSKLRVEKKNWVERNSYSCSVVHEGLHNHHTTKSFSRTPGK
Assay: competition ELISA, chimeric IgG titrated, CD27 coated, biotin-CD70, human pair
READOUT NAME: IC50 (nM)

[[record]]
binder = "32D1 chimeric antibody (antibody, V domains shown) VH: EVQLQQSGPELVKPGASLKMSCKASGYTFTDYVIHWVKQKPGQGLEWIGYLHPYNDDTKYNEKFKGKATLTSDKSSSTAYMELNSLTSEDSAVYYCARRGYYDYAWFADWGQGTLVTVSA VL: DIVLTQSPASLAVSLGQRATISCKASKSVSASGYTWMHWYQQKPGQAPKLLIYLASNLESGVPARFSGSGSGTDFTLNIHPVEEEDAATYYCQHSRELPPTFGGGTKLEIK"
recorded_number = 0.1

[[record]]
binder = "14C12 chimeric antibody (antibody, V domains shown) VH: EVQLQQSGPELVKPGASVKMSCKASGYTFTDYVIHWVKQKPGQGLEWIGYLHPYNDDTKYNEKFKGKATLTSDKSSSTAYMELSSLTSEDSAVYYCARRGYYDYAWFADWGQGTLVTVSA VL: DIVLTQSPASLAVSLGQRATISCRASKSVSASGYTWIHWYQQKPRQAPKLLIYLASNLESGVPARFSGSGSGTDFTLNIHPVEEEDAATYYCQHSRELPPTFGGGTKLEIK"
recorded_number = 0.1

[[record]]
binder = "2B12 chimeric antibody (antibody, V domains shown) VH: QVQLQQSGPGLVQPSQSLSITCTVSGFSLTTYAVHWVRQSPGKGLEWLGVIWSTGITDYNAAFISRLSISKDNSKSQVFFKMNSLQSDDIAIYYCARNPYYGNLNAMDYWGQGTSVTVSS VL: DIVLTQSPASLAVSLGQRATISCRASKSVDTSGYSFMHWYQQKPGQPPKLLIYLASNLESGVPARFSGSGSGTDFTLNIHPVEEEDAATYYCQHSRELPLTFGAGTKLELK"
recorded_number = 0.11


Cited source: patent US20240247072A1
